Attribution: ChEMBL document CHEMBL2401653

- System: Liver microsomes
- PROTOCOL_DETAILS: Intrinsic clearance in rat liver microsomes at 1 umol/L by LC/MS analysis in presence of NADPH
- Type: ADME, Microsome
- EXPERIMENTAL_PARAMETERS: 1 µM

# COMPOUND, Intrinsic clearance
records = [
    ("CCOC(=O)c1cc(C#N)c(N2CCN(C(=O)NS(=O)(=O)c3ccc(C)cc3)CC2)nc1C(F)(F)F", "> 104 µL/min/mg"),
    ("CCOC(=O)c1cc(C#N)c(N2CCN(C(=O)NS(=O)(=O)c3ccc(Cl)cc3)CC2)nc1C(F)(F)F", "> 104 µL/min/mg"),
    ("CCOC(=O)c1cnc(N2CCN(C(=O)NS(=O)(=O)c3ccc(Cl)cc3)CC2)c(Cl)c1", "> 104 µL/min/mg"),
    ("CCOC(=O)c1cc(C#N)c(N2CC3CN(C(=O)NS(=O)(=O)c4ccccc4)CC3C2)nc1C (stereo unspecified)", "< 19 µL/min/mg"),
    ("CCOC(=O)c1cnc(N2CCN(C(=O)NS(=O)(=O)c3ccccc3)CC2)c(Cl)c1", "> 104 µL/min/mg"),
    ("CCOC(=O)c1cc(C#N)c(N2CCN(C(=O)NS(=O)(=O)c3ccc(Cl)s3)C(CCC(=O)O)C2)nc1C(F)(F)F (racemic)", "> 104 µL/min/mg"),
]
